# protocolSummary: in vitro
# details: PAMPA, pH 7.4
For each entry below, report its Papp at 7 h value.
The figure you give is taken to be in ×10⁻⁶ cm/s; do not add the unit.

Entry `Cc1ncsc1-c1ccc(CNC(=O)[C@@H]2C[C@@H](O)CN2C(=O)[C@@H](OC(=O)CCOCCOCCOCCNC(=O)Cc2ccccc2)C(C)(C)C)cc1` : reported Papp at 7 h = ? 0.3

Returns the measured Papp at 7 h for the input molecule. Input: `Cc1ncsc1-c1ccc(CNC(=O)[C@@H]2C[C@@H](O)CN2C(=O)[C@@H](NC(=O)CCOCCOCCOCCNC(=O)Cc2ccccc2)C(C)(C)C)cc1` 0.2

Which measured Papp at 7 h value corresponds to `Cc1ncsc1-c1ccc(CNC(=O)[C@@H]2C[C@@H](O)CN2C(=O)[C@@H](NC(=O)Cc2ccccc2)C(C)(C)C)cc1` ? 8.6

* * *

# protocolSummary: in vitro
# details: PAMPA, pH 7.4, PAMPA permeability (Pe)
readoutType: Papp

# input compound: Cc1sc2c(c1C)C(c1ccc(Cl)cc1)=N[C@@H](CC(=O)OC(C)(C)C)c1nnc(C)n1-2 [Compound 1, reference compound] ; wanted: its Papp ≥ 5 ×10⁻⁶ cm/s

* * *

# protocolSummary: in vitro
# details: PAMPA, pH 7.4
Hi there, I'd appreciate the recorded Papp for every entry that follows.

Reported Papp for `Cc1ncsc1-c1ccc(CNC(=O)[C@@H]2C[C@@H](O)CN2C(=O)[C@@H](NC(=O)COCCOCCOCCNC(=O)C[C@@H]2N=C(c3ccc(Cl)cc3)c3c(sc(C)c3C)-n3c(C)nnc32)C(C)(C)C)cc1` : what is it? > 0.6 ×10⁻⁶ cm/s

Fill blank: measured Papp of the compound `Cc1ncsc1-c1ccc(CNC(=O)[C@@H]2C[C@@H](O)CN2C(=O)[C@@H](NC(=O)COCCOCCNC(=O)C[C@@H]2N=C(c3ccc(Cl)cc3)c3c(sc(C)c3C)-n3c(C)nnc32)C(C)(C)C)cc1` is ____. > 0.6 ×10⁻⁶ cm/s

Param item = `Cc1ncsc1-c1ccc(CNC(=O)[C@@H]2C[C@@H](O)CN2C(=O)[C@@H](NC(=O)Cc2ccccc2)C(C)(C)C)cc1` ; retrieve measured Papp. ≥ 5 ×10⁻⁶ cm/s
